Hello, the source for this data is PubChem BioAssay (Tox21), in case you need it.

- ASSAY_SYSTEM: Cytochrome P450 2C9 (Homo sapiens) (UniProt P11712)
- Sequence (P11712 whole entry, looked up): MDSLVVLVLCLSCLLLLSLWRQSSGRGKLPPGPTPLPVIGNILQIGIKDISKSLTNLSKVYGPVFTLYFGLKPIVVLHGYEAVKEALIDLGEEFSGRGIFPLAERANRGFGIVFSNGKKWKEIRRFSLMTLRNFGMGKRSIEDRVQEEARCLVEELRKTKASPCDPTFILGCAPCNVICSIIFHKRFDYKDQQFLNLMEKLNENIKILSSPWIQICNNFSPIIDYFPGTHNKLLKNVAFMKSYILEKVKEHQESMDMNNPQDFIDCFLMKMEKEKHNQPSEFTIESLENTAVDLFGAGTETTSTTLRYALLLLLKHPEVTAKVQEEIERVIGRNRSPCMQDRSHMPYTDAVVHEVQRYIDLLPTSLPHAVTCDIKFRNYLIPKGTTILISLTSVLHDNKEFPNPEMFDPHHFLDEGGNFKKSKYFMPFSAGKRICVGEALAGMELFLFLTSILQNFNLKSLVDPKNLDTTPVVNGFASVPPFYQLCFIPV
- EXPERIMENT_DESCRIPTION: Cytochrome P450 Family 2 Subfamily C Member 9 (CYP2C9) small molecule antagonists: luciferase reporter qHTS assay (AID 1671198); also: nearly all actives have a fitted effect of over 50% in size
- SETUP_CONDITIONS: P450-Glo CYP2C9 enzyme assay, luciferin luminescence; series mostly up to 115 µM
Records with an inconclusive call do not appear. Calls of active or inactive are those of the source. Calls follow the shape of the dose curve; as a rule, active = well fitted inhibition curve with a large enough effect in the repeat runs; inconclusive = weak or mixed curves; inactive = no such curve, though single readings can be large or run the other way.
Classes used: true (1) (active), false (0) (inactive)

[[record]]
molecule = "CN(C)CCCNCCCN"
answer_label = "false (0)"

[[record]]
molecule = "N#CCc1cccc(C(F)(F)F)c1"
answer_label = "false (0)"

[[record]]
molecule = "CCOC(=O)C1=NN(c2ccccc2)C(=O)C1"
answer_label = "true (1)"

[[record]]
molecule = "COc1cc(C(C)(C)C)c(O)c(C(C)(C)C)c1"
answer_label = "true (1)"

[[record]]
molecule = "CCCCCOC(=O)COc1cc(N2C(=O)C3=C(CCCC3)C2=O)c(F)cc1Cl"
answer_label = "true (1)"

[[record]]
molecule = "Nc1nc(CC(=O)O)cs1"
answer_label = "false (0)"

[[record]]
molecule = "O=C(Nc1ccccc1)OCC(CN1CCCCC1)OC(=O)Nc1ccccc1 (configuration not stated)"
answer_label = "true (1)"

